biological target: NADP-dependent malic enzyme, mitochondrial (Homo sapiens)
Sequence (Q16798 whole entry): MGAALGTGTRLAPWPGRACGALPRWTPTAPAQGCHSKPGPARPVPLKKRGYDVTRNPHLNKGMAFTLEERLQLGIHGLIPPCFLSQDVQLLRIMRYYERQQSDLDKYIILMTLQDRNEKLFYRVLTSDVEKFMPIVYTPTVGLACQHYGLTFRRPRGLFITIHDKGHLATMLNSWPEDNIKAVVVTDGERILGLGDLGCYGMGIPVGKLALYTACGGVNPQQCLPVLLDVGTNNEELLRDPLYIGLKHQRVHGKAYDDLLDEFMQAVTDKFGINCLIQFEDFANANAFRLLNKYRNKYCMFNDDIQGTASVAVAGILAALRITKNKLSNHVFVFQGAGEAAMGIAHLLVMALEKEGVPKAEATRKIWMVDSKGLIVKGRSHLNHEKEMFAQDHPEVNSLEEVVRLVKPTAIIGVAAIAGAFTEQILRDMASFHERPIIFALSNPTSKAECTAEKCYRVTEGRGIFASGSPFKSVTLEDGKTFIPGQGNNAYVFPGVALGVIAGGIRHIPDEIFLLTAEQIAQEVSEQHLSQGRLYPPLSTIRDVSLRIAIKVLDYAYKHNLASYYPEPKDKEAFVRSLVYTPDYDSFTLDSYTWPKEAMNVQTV
quantity: pIC50
Value format note: pIC50 is -log10 of concentration (mol/L); just state the number.

Illustrative cases are given below, each with its answer.
molecule: O=C(/C=C/c1ccccc1)N1CCN(c2ccc(O)cc2)CC1
experimental.system: NADP-dependent malic enzyme, mitochondrial (Homo sapiens)
pIC50: 7.10
--
molecule: O=C(Nc1nnn[nH]1)C1c2ccccc2OC2C=CC=CC21 (stereo unspecified)
experimental.system: NADP-dependent malic enzyme, mitochondrial (Homo sapiens)
pIC50: 4.68
--
molecule: O=C(Cc1ccc(Cl)cc1)N1CCN(c2ccc(O)cc2)CC1
experimental.system: NADP-dependent malic enzyme, mitochondrial (Homo sapiens)
pIC50: 6.89
--
molecule: CC(C)(CC(=O)N1CCN(c2ccc(O)cn2)CC1)c1ccc(Cl)cc1
experimental.system: NADP-dependent malic enzyme, mitochondrial (Homo sapiens)
pIC50: 6.44
--
molecule: CC(C)(CC(=O)N1CCN(c2ccc(O)cc2)CC1)c1ccccc1
experimental.system: NADP-dependent malic enzyme, mitochondrial (Homo sapiens)
pIC50: 6.92
--
molecule: O=C(Cc1ccc(C(F)(F)F)cc1)N1CCN(c2ccc(O)cc2)CC1
experimental.system: NADP-dependent malic enzyme, mitochondrial (Homo sapiens)
pIC50: 6.48

// query // lookup pIC50 for O=C(COc1ccccc1)N1CCN(c2ccc(O)cc2)CC1
// result 6.89

// query What value of measured pIC50 is listed for CCCCOc1ccc(CCC(=O)N2CCN(c3ccc(O)cc3)CC2)cc1 ?
// result 7.22

// query Tell me the measured pIC50 of COc1ccc(CCC(=O)N2CCN(c3ccc(O)cn3)CC2)cc1 , please.
// result 6.33

// query If you can, please state the reported pIC50 value of CC(C)(CC(=O)N1CCN(c2ccc(O)cn2)CC1)c1ccccc1 .
// result 6.82

// query Fill in the blank: the reported pIC50 of O=C(Nc1nnn[nH]1)c1cc(-c2ccccc2)nc2ccccc12 is ____.
// result 5.29
